Data credit: the array DNA melting data of Ke et al.

- measurementProtocol: melting temperature; melt of duplexes
- conditionSummary: sodium 0.0675 M; strand 1 µM
Exercise: state measured Tm for each of the substances provided.
State the answer as a number, implicitly in °C.

Request: So what's the measured Tm for this one? CGACGTGCCCCATGTGCTG+CAGCACATGCTGCACGTCG ((((((((..(((((((((+)))))))))..))))))))
Response: 49.7

Request: So what's the measured Tm for this one? CGACGTGCATAATGTGCTG+CAGCACATTAAGCACGTCG ((((((((.((((((((((+)))))))))).))))))))
Response: 55.1

Request: So what's the measured Tm for this one? CGACGTGCGATATGTGCTG+CAGCACATGTCGCACGTCG ((((((((((.((((((((+)))))))).))))))))))
Response: 61

Request: So what's the measured Tm for this one? CGACGTGCGGTATGTGCTG+CAGCACATGCGGCACGTCG ((((((((.(.((((((((+)))))))).).))))))))
Response: 55.1

Request: So what's the measured Tm for this one? CGACGTGCGGTATGTGCTG+CAGCACATTATGCACGTCG ((((((((...((((((((+))))))))...))))))))
Response: 51.3

Request: So what's the measured Tm for this one? CGACGTGCTAAATGTGCTG+CAGCACATTAAGCACGTCG (((((((((.(((((((((+))))))))).)))))))))
Response: 55.8

Request: So what's the measured Tm for this one? CGACGTGCTATATGTGCTG+CAGCACATTGTGCACGTCG ((((((((...((((((((+))))))))...))))))))
Response: 47.2

Request: So what's the measured Tm for this one? CGACGTGCGAAATGTGCTG+CAGCACATTGAGCACGTCG ((((((((..(((((((((+)))))))))..))))))))
Response: 61.3

Request: So what's the measured Tm for this one? CGACGTGCCTTATGTGCTG+CAGCACATAAGGCACGTCG (((((((((((((((((((+)))))))))))))))))))
Response: 62.9

Request: So what's the measured Tm for this one? CGACGTGCAACATGTGCTG+CAGCACATAGTGCACGTCG (((((((((..((((((((+))))))))..)))))))))
Response: 48.9

Request: So what's the measured Tm for this one? CGACGTGCATGATGTGCTG+CAGCACATTGAGCACGTCG ((((((((...((((((((+))))))))...))))))))
Response: 50.7

Request: So what's the measured Tm for this one? CGACGTGCGCTATGTGCTG+CAGCACATGGCGCACGTCG ((((((((((.((((((((+)))))))).))))))))))
Response: 63.2

Request: So what's the measured Tm for this one? CGACGTGCAGCATGTGCTG+CAGCACATACTGCACGTCG ((((((((((.((((((((+)))))))).))))))))))
Response: 55.7

Request: So what's the measured Tm for this one? CGACGTGCAAGATGTGCTG+CAGCACATCGAGCACGTCG ((((((((..(((((((((+)))))))))..))))))))
Response: 57.9

Request: So what's the measured Tm for this one? CGACGTGCGAAATGTGCTG+CAGCACATTACGCACGTCG (((((((((.(((((((((+))))))))).)))))))))
Response: 58.6

Request: So what's the measured Tm for this one? CGACGTGCTGCATGTGCTG+CAGCACATCCGGCACGTCG ((((((((.(.((((((((+)))))))).).))))))))
Response: 51.9

Request: So what's the measured Tm for this one? CGACGTGCTTAATGTGCTG+CAGCACATCGGGCACGTCG ((((((((...((((((((+))))))))...))))))))
Response: 49.1

Request: So what's the measured Tm for this one? CGACGTGCTGCATGTGCTG+CAGCACATTGGGCACGTCG ((((((((...((((((((+))))))))...))))))))
Response: 50.1

Request: So what's the measured Tm for this one? CGACGTGCGTTATGTGCTG+CAGCACATTATGCACGTCG ((((((((.(.((((((((+)))))))).).))))))))
Response: 53

Request: So what's the measured Tm for this one? CGACGTGCTGGATGTGCTG+CAGCACATGATGCACGTCG ((((((((...((((((((+))))))))...))))))))
Response: 51.7

Request: So what's the measured Tm for this one? CGACGTGCCTAATGTGCTG+CAGCACATCTAGCACGTCG ((((((((...((((((((+))))))))...))))))))
Response: 48.8

Request: So what's the measured Tm for this one? CGACGTGCGGAATGTGCTG+CAGCACATCTCGCACGTCG (((((((((..((((((((+))))))))..)))))))))
Response: 55.3

Request: So what's the measured Tm for this one? CGACGTGCCACATGTGCTG+CAGCACATGGCGCACGTCG ((((((((..(((((((((+)))))))))..))))))))
Response: 54

Request: So what's the measured Tm for this one? CGACGTGCATTATGTGCTG+CAGCACATGCCGCACGTCG ((((((((...((((((((+))))))))...))))))))
Response: 47.5

Request: So what's the measured Tm for this one? CGACGTGCCTTATGTGCTG+CAGCACATGTAGCACGTCG ((((((((...((((((((+))))))))...))))))))
Response: 49.1

Request: So what's the measured Tm for this one? CGACGTGCAATATGTGCTG+CAGCACATGGCGCACGTCG ((((((((...((((((((+))))))))...))))))))
Response: 50.5

Request: So what's the measured Tm for this one? CGACGTGCTAAATGTGCTG+CAGCACATGGAGCACGTCG (((((((((..((((((((+))))))))..)))))))))
Response: 54.5

Request: So what's the measured Tm for this one? CGACGTGCCAAATGTGCTG+CAGCACATCGGGCACGTCG (((((((((..((((((((+))))))))..)))))))))
Response: 54.3

Request: So what's the measured Tm for this one? CGACGTGCAGGATGTGCTG+CAGCACATCCCGCACGTCG ((((((((.((((((((((+)))))))))).))))))))
Response: 59
